Each entry below carries its recorded log P.
Test: Determination of the log P values by HPLC (formic acid method)
Type: physicochemical
Details: reversed-phase column (C 18), acidic range (pH 3.4), 55° C.
Description: 1) Description of Method for Determination of the Log P Values (Formic Acid Method) Eluents for determination in the acidic range (pH 3.4): Eluent A: acetonitrile+1 ml of formic acid/liter. Eluent B: water+0.9 ml of formic acid/liter. The lambda max values were determined in the maxima of the chromatographic signals using the UV spectra from 200 nm to 400 nm.
experimental.endpoint: log P

# compound, experimental.endpoint, reported.measurement
records = [
    ("COc1ccc(Cl)c(C(=O)Nc2ccn(-c3ncc(F)cc3F)n2)c1", "log P", 2.51),
    ("Cc1nc(C)c(C(=O)Nc2ccn(-c3ncc(F)cc3F)n2)s1", "log P", 1.88),
    ("O=C(Nc1cnn(-c2ncc(F)cc2F)n1)c1ccccc1Br", "log P", 2.27),
    ("Cn1cc(C(=O)Nc2ccn(-c3ncc(Cl)cc3Cl)n2)c(I)n1", "log P", 1.83),
    ("O=C(Nc1ccn(-c2cccc(F)c2F)n1)c1ccccc1I [Compound I-1-67]", "log P", 3.10),
]

###

test: Determination of the log P values by HPLC (formic acid method); type: physicochemical; conditions: reversed-phase column (C 18), acidic range (pH 3.4), 55° C.
experimental.endpoint: log P

# compound, experimental.endpoint, reported.measurement
rows = [
    ("O=C(Nc1ccn(-c2ncccc2F)n1)c1c(F)cccc1F [Compound I-1-132]", "log P", 1.99),
    ("N#CCN(C(=O)c1ccccc1C(F)(F)F)c1ccn(-c2c(F)cccc2F)n1 [Compound I-1-259]", "log P", 2.90),
    ("O=C(Nc1ccn(-c2ccccc2C(F)(F)F)n1)c1ccccc1I [Compound I-1-5]", "log P", 3.05),
    ("O=C(Nc1ccn(-c2cccnc2Cl)n1)c1ccccc1C(F)(F)F [Compound I-1-391]", "log P", 2.31),
    ("N#Cc1c(F)cccc1-n1ccc(NC(=O)c2ccccc2Br)n1 [Compound I-1-620]", "log P", 2.61),
    ("O=C(Nc1ccn(-c2ncc(F)cc2F)n1)c1ccccc1Cl [Compound I-1-143]", "log P", 2.32),
    ("O=C(Nc1cnn(-c2ncccc2Cl)n1)c1ccccc1C(F)(F)F [Compound I-2-10]", "log P", 2.38),
    ("O=C(Nc1cnn(-c2ncccc2F)n1)c1ccccc1I [Compound I-2-51]", "log P", 2.14),
    ("O=C(Nc1ccn(-c2c(F)cccc2F)n1)c1ccccc1CC(F)(F)F [Compound I-1-610]", "log P", 3.00),
]

###

test: Determination of the log P values by HPLC (formic acid method); format: physicochemical; conditions: reversed-phase column (C 18), acidic range (pH 3.4), 55° C.
The label is Satisfied for chromatographic logP below 1 and Not satisfied for chromatographic logP equal to or exceeding 1.

# input.smiles, discrete.label
rows = [
    ("Nc1cnn(-c2c(F)cccc2F)n1", "Not satisfied"),
    ("O=C(Nc1cnn(-c2c(F)cccc2F)n1)c1ccccc1C(F)(F)F", "Not satisfied"),
    ("Nc1ccn(-c2c(F)cccc2F)n1", "Not satisfied"),
    ("CC(=O)Nc1ccn(-c2c(F)cccc2F)n1", "Not satisfied"),
    ("CC(=O)NC1=NN(c2c(F)cccc2F)CC1", "Not satisfied"),
    ("Nc1ccn(-c2ncc(F)cc2F)n1", "Satisfied"),
]
